Experiment: Rat pharmacokinetic study, second study (dose response)
Type: in vivo, rats
Conditions: plasma, po; Second Study, rat p.o. 20 mg/kg (120 mg/m^2)
REPORTED METRIC: Tmax (h)

[[record]]
smi = "O=C(Nc1ccncc1)C(=O)c1cn(Cc2ccc(Cl)cc2)c2ccccc12"
measurement_units = "h"
recorded_result = 4


---

Assay: Rat pharmacokinetic study, first study
Assay type: in vivo, rats (Sprague Dawley, male)
Conditions: male, Sprague Dawley, rat, plasma, po, 15 mg/kg, Male S-D Rats, Oral (Gavage) 15 mg/kg
Protocol: In the first study, the crystalline indibulin, 10% A and 25% A SDDs were administered p.o. at 10 and 15 mg/kg to rats (Sprague Dawley, male) and plasma concentrations of indibulin were determined at several time points. In particular, all rats used in this study were fasted 12 hours prior to dose, and food was returned 4 hours post dose. […] There were six rats per group, all animals were weighed and dose volume calculated so that each rat received test article orally at a volume of 10 mL/kg. […]
REPORTED METRIC: Cmax (ng/mL)

[[record]]
smi = "O=C(Nc1ccncc1)C(=O)c1cn(Cc2ccc(Cl)cc2)c2ccccc12"
reported_metric = "Cmax"
measurement_units = "ng/mL"
recorded_result = 16.5


Source of measurements: patent US20140004192A1
